Origin of the recorded values: the supplement of paper PMC12042874

Assay: amyloid nucleation score (Sup35N fusion, yeast selection) (log enrichment); library NNK2; higher = more nucleation; inactive = no reads after selection;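 further: zero at mode of non-aggregating sequences after 7 days selection at 30°C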
outcome.measure: amyloid nucleation score
Write the number on its own, no unit after it.

>>> readout_number("YTIIKWPL")
-0.21
>>> readout_number("FSGSALGCEMRYCSRVYWQR")
4.46
>>> readout_number("FSECLKTTENMKITQKGTPV")
0.459
>>> readout_number("TVIAEPIRDEQCTIYHRCGV")
0.554
>>> readout_number("CTSVGFTYHRDFWYMGFWSR")
0.919
>>> readout_number("AKYSSLKNMLYGFRRDANMG")
0.296

Incoming: Using known records, supply amyloid nucleation score for AKPTRGSCSGT
Outgoing: 2.79

Incoming: Using known records, supply amyloid nucleation score for WYSNAVG
Outgoing: 1.57

Incoming: Using known records, supply amyloid nucleation score for VHPSDGAGLYS
Outgoing: -1.34

Incoming: Using known records, supply amyloid nucleation score for SRSYSNLWLGAHVLTRLRHD
Outgoing: -0.337

Incoming: Using known records, supply amyloid nucleation score for CFSRMRRTEW
Outgoing: -0.142

Incoming: Using known records, supply amyloid nucleation score for YMMSRASSVIIEREYK
Outgoing: 0.479

Incoming: Using known records, supply amyloid nucleation score for VDLGNYSSYRDFRETRLRPM
Outgoing: 0.229

Incoming: Using known records, supply amyloid nucleation score for DRGYVTD
Outgoing: 1.14

Incoming: Using known records, supply amyloid nucleation score for SKQCSKILTIKRMISLTGNE
Outgoing: -0.542

Incoming: Using known records, supply amyloid nucleation score for GYIYPNRIHNLYVGTMSVTV
Outgoing: 5.43

Incoming: Using known records, supply amyloid nucleation score for MWNQDLSFFCITRDIKVCTF
Outgoing: 4.87
